Biological target: T1, human PSMA on LNCaP cells (human, UniProt Q04609 1-750)
T1 construct: PSMA of the LNCaP prostate cancer cell line itself
T1 sequence (Q04609 whole entry): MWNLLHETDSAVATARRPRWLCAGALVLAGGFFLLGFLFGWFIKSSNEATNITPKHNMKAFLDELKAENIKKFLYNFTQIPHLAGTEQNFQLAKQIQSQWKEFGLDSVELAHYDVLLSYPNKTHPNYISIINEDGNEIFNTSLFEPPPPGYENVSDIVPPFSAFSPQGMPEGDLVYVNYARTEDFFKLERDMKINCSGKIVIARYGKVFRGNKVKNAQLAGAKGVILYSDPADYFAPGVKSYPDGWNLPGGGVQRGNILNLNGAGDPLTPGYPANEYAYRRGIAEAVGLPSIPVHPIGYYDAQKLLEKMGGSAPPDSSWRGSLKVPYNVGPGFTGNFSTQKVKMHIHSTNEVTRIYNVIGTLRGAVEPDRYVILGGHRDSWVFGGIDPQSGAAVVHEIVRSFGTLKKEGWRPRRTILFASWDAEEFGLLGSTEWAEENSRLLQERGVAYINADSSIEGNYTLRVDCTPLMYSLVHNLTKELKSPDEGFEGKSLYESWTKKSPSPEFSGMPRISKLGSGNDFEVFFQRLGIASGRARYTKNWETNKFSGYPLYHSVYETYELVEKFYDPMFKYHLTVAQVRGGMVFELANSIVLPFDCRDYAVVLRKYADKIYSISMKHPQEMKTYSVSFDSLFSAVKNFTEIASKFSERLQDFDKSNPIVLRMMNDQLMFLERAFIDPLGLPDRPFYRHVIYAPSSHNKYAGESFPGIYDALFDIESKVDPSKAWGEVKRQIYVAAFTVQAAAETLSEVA
Test: flow cytometry, Fab supernatant, LNCaP cells
Recorded Geo-MFI values for a group of binders are listed next.
property-name: Geo-MFI

PSMB49 (Fab, V domains shown, mammalian-expressed Fab supernatant (huG1 Fab and human kappa vectors); also called PSMM50) VH: QVQLVQSGAEVKKPGSSVKVSCKASGGTFSSYAISWVRQAPGQGLEWMGGIIPIFGTANYAQKFQGRVTITADESTSTAYMELSSLRSEDTAVYYCARASRVWHASYGYLDYWGQGTLVTVSS VL: EIVLTQSPATLSLSPGERATLSCRASQSVSKWLAWYQQKPGQAPRLLIYDASNRATGIPARFSGSGSGTDFTLTISSLEPEDFAVYYCQQRFTAPWTFGQGTKVEIK    3.22
PSMB55 (Fab, V domains shown, mammalian-expressed Fab supernatant (huG1 Fab and human kappa vectors); also called PSMM56) VH: EVQLVQSGAEVKKPGESLKISCKGSGYSFTSYWIGWVRQMPGKGLEWMGIIYPGDSDTRYSPSFQGQVTISADKSISTAYLQWSSLKASDTAMYYCARGLPIWYLDYWGQGTLVTVSS VL: EIVLTQSPATLSLSPGERATLSCRASQSVASDLAWYQQKPGQAPRLLIYFASNRATGIPARFSGSGSGTDFTLTISSLEPEDFAVYYCQQSITWPFTFGQGTKVEIK    17.2
PSMB109 (Fab, V domains shown, mammalian-expressed Fab supernatant (huG1 Fab and human kappa vectors); also called PSMM110) VH: QVQLVQSGAEVKKPGSSVKVSCKASGGTFSSYAISWVRQAPGQGLEWMGWISPYNGNANYAQKFQGRVTITADESTSTAYMELSSLRSEDTAVYYCARVNSAALVWERLDYWGQGTLVTVSS VL: DIQMTQSPSSLSASVGDRVTITCRASQSIDRWLNWYQQKPGKAPKLLIYAASSLQSGVPSRFSGSGSGTDFTLTISSLQPEDFATYYCQQSPRYPLTFGQGTKVEIK    34.9
PSMB51 (Fab, V domains shown, mammalian-expressed Fab supernatant (huG1 Fab and human kappa vectors); also called PSMM52) VH: QVQLVQSGAEVKKPGSSVKVSCKASGGTFSSYAISWVRQAPGQGLEWMGWIIPYNGNANYAQKFQGRVTITADESTSTAYMELSSLRSEDTAVYYCARVNSAALVWERLDYWGQGTLVTVSS VL: DIQMTQSPSSLSASVGDRVTITCRASQSIDRWLNWYQQKPGKAPKLLIYAASSLQSGVPSRFSGSGSGTDFTLTISSLQPEDFATYYCQQSPRYPLTFGQGTKVEIK    41.5
